Origin of values: the Immune Epitope Database (IEDB)

- target-or-system: HLA-B*40:01
- experiment-summary: IEDB peptide-MHC binding, purified MHC/competitive/fluorescence; filed as Kd, often an IC50 or EC50 that approximates it; bounds were set here for any values at or beyond the usual limits of such assays
- measurement-parameters: source organism: Yersinia pseudotuberculosis IP 31758
reported-metric: pKd
Numbers only, as −log10 of the molar value.

Ask: Which pKd is listed for RQMRASAPL ?
Result: 7.74

###

- target-or-system: HLA-B*15:09
- experiment-summary: IEDB peptide-MHC binding, purified MHC/direct/fluorescence; filed as Kd, often an IC50 or EC50 that approximates it; bounds were set here for any values at or beyond the usual limits of such assays
- measurement-parameters: source organism: Vibrio cholerae RC385
pKd: −log10 of the molar value.
reported-metric: pKd

Ask: Which pKd is listed for GLRWHVRAF ?
Result: ≤ 4.70

###

- target-or-system: HLA-A*11:01
- experiment-summary: IEDB peptide-MHC binding, purified MHC/competitive/radioactivity; filed as Kd, often an IC50 or EC50 that approximates it; bounds were set here for any values at or beyond the usual limits of such assays
- measurement-parameters: source organism: Mammarenavirus whitewaterense
reported-metric: Kd

>  <chain-sequence>
KCFANNQDER

>  <reported-metric>
Kd

>  <result-value>
≥ 60300 nM

$$$$

Now look at this entry.
Ask: Which Kd is listed for KWMLISSELK ?
Result: 248 nM

###

- target-or-system: HLA-A*02:03
- experiment-summary: IEDB peptide-MHC binding, purified MHC/competitive/fluorescence; filed as Kd, often an IC50 or EC50 that approximates it; bounds were set here for any values at or beyond the usual limits of such assays
- measurement-parameters: source organism: Escherichia coli F11
pKd: −log10 of the molar value.
reported-metric: pKd

Ask: Which pKd is listed for GSGDDTWLI ?
Result: ≤ 4.70

###

- target-or-system: HLA-A*03:01
- experiment-summary: IEDB peptide-MHC binding, purified MHC/competitive/fluorescence; filed as Kd, often an IC50 or EC50 that approximates it; bounds were set here for any values at or beyond the usual limits of such assays
- measurement-parameters: source organism: Escherichia coli F11
reported-metric: Kd

Ask: Which Kd is listed for GSGDDTWLI ?
Result: ≥ 20 µM

###

- target-or-system: HLA-B*27:03
- experiment-summary: IEDB peptide-MHC binding, purified MHC/competitive/fluorescence; filed as Kd, often an IC50 or EC50 that approximates it; bounds were set here for any values at or beyond the usual limits of such assays
- measurement-parameters: source organism: Vibrio cholerae 2740-80
pKd: −log10 of the molar value.
reported-metric: pKd

Ask: Which pKd is listed for LAVFPAMFW ?
Result: ≤ 4.70

###

- target-or-system: HLA-B*08:01
- experiment-summary: IEDB peptide-MHC binding, purified MHC/competitive/radioactivity; filed as Kd, often an IC50 or EC50 that approximates it; bounds were set here for any values at or beyond the usual limits of such assays
- measurement-parameters: source organism: Cowpox virus
reported-metric: pKd
Numbers only, as −log10 of the molar value.

Ask: Which pKd is listed for SKKTRISDL ?
Result: 8.56

###

- target-or-system: HLA-A*68:01
- experiment-summary: IEDB peptide-MHC binding, purified MHC/competitive/radioactivity; filed as Kd, often an IC50 or EC50 that approximates it; bounds were set here for any values at or beyond the usual limits of such assays
- measurement-parameters: source organism: Dengue virus 1 Nauru/West Pac/1974
reported-metric: Kd (nM)
Give bare numbers, in nM.

Ask: Report Kd for STVSQLAKR tested on HLA-A*68:01.
Result: 9.66

###

- target-or-system: HLA-B*18:01
- experiment-summary: IEDB peptide-MHC binding, purified MHC/direct/fluorescence; filed as Kd, often an IC50 or EC50 that approximates it; bounds were set here for any values at or beyond the usual limits of such assays
- measurement-parameters: source organism: Giardia lamblia ATCC 50803
pKd: −log10 of the molar value.
reported-metric: pKd

Ask: Which pKd is listed for VAAKGAPAL ?
Result: ≤ 4.70

###

- target-or-system: HLA-A*11:01
- experiment-summary: IEDB peptide-MHC binding, purified MHC/direct/fluorescence; filed as Kd, often an IC50 or EC50 that approximates it; bounds were set here for any values at or beyond the usual limits of such assays
- measurement-parameters: source organism: Vibrio parahaemolyticus
pKd: −log10 of the molar value.
reported-metric: pKd

Ask: Which pKd is listed for ILRPLGIEY ?
Result: ≤ 4.70

###

- target-or-system: HLA-B*40:02
- experiment-summary: IEDB peptide-MHC binding, purified MHC/competitive/fluorescence; bounds were set here for any values at or beyond the usual limits of such assays
- measurement-parameters: source organism: Homo sapiens
pIC50: −log10 of the molar value.
reported-metric: pIC50

>  <chain-sequence>
RQSSGSSSSGF

>  <target-or-system>
HLA-B*40:02

>  <result-value>
5.69

$$$$
>  <chain-sequence>
ELFARSSDPR

>  <target-or-system>
HLA-B*40:02

>  <result-value>
≤ 4.70

$$$$

Ask: Which pIC50 is listed for LVTMGTGTFGR ?
Result: ≤ 4.70

###

Answer each item with its documented pIC50.
- target-or-system: HLA-A*01:01
- experiment-summary: IEDB peptide-MHC binding, purified MHC/competitive/fluorescence; bounds were set here for any values at or beyond the usual limits of such assays
- measurement-parameters: source organism: Homo sapiens
pIC50: −log10 of the molar value.

Dear colleague, could you send me pIC50 for each of the items below? Thanks.
1. ELFARSSDPR
2. RQSSGSSSSGF
3. LVTMGTGTFGR

Result:
["≤ 4.70", "≤ 4.70", "≤ 4.70"]

###

- target-or-system: HLA-A*02:01
- experiment-summary: IEDB peptide-MHC binding, purified MHC/direct/fluorescence; filed as Kd, often an IC50 or EC50 that approximates it; bounds were set here for any values at or beyond the usual limits of such assays
- measurement-parameters: source organism: Giardia lamblia ATCC 50803
reported-metric: Kd

Ask: Which Kd is listed for VAAKGAPAL ?
Result: ≥ 20 µM

###

- target-or-system: HLA-A*03:01
- experiment-summary: IEDB peptide-MHC binding, purified MHC/competitive/fluorescence; bounds were set here for any values at or beyond the usual limits of such assays
- measurement-parameters: source organism: Homo sapiens
Answer each item with its documented IC50.

>  <chain-sequence>
LVTMGTGTFGR

>  <IC50>
≥ 20 µM

$$$$
>  <chain-sequence>
ELFARSSDPR

>  <IC50>
≥ 20 µM

$$$$

Ask: Which IC50 is listed for RQSSGSSSSGF ?
Result: ≥ 20 µM

###

- target-or-system: HLA-A*68:01
- experiment-summary: IEDB peptide-MHC binding, purified MHC/competitive/radioactivity; filed as Kd, often an IC50 or EC50 that approximates it; bounds were set here for any values at or beyond the usual limits of such assays
- measurement-parameters: source organism: SARS coronavirus Tor2
reported-metric: pKd
Numbers only, as −log10 of the molar value.

>  <chain-sequence>
TQYNRYLALY

>  <pKd>
7.00

$$$$

Dear colleague, could you send me pKd for each of the items below? Thanks.
1. TTFDAEYCR
2. SSIVRQLFK
3. DVFHLYLQY
4. STRHPSKLR
5. PVVAAIITR
6. RQLFKPLTKK

Result:
8.69
6.41
6.73
7.00
6.57
5.67

Dear colleague, could you send me pKd for each of the items below? Thanks.
1. QSQMLLIVLK
2. SVSPKLFIR

Result:
1. 6.68
2. 5.85

Dear colleague, could you send me pKd for each of the items below? Thanks.
1. TVCTVCGMWK
2. LSAGVEFLK

Result:
1: 7.28; 2: 9.61

###

- target-or-system: HLA-B*57:01
- experiment-summary: IEDB peptide-MHC binding, purified MHC/competitive/fluorescence; filed as Kd, often an IC50 or EC50 that approximates it; bounds were set here for any values at or beyond the usual limits of such assays
- measurement-parameters: source organism: Listeria welshimeri serovar 6b str. SLCC5334
reported-metric: Kd

Ask: Which Kd is listed for ELYENKPDV ?
Result: ≥ 20 µM

###

- target-or-system: HLA-B*58:01
- experiment-summary: IEDB peptide-MHC binding, purified MHC/direct/fluorescence; filed as Kd, often an IC50 or EC50 that approximates it; bounds were set here for any values at or beyond the usual limits of such assays
- measurement-parameters: source organism: Influenza A virus (A/Turkey/MO/24093/99(H1N2))
reported-metric: pKd
Answers are plain numbers, as −log10 of the molar value.

Ask: Which pKd is listed for GMQIRGFVY ?
Result: 5.32

###

- target-or-system: HLA-A*68:01
- experiment-summary: IEDB peptide-MHC binding, purified MHC/competitive/radioactivity; filed as Kd, often an IC50 or EC50 that approximates it; bounds were set here for any values at or beyond the usual limits of such assays
- measurement-parameters: source organism: Lymphocytic choriomeningitis virus (strain WE)
pKd: −log10 of the molar value.
reported-metric: pKd

Ask: Which pKd is listed for SAYLISIFLH ?
Result: ≤ 4.51
